# tgt: FXR (Homo sapiens)
# Sequence (Q96RI1 1-486): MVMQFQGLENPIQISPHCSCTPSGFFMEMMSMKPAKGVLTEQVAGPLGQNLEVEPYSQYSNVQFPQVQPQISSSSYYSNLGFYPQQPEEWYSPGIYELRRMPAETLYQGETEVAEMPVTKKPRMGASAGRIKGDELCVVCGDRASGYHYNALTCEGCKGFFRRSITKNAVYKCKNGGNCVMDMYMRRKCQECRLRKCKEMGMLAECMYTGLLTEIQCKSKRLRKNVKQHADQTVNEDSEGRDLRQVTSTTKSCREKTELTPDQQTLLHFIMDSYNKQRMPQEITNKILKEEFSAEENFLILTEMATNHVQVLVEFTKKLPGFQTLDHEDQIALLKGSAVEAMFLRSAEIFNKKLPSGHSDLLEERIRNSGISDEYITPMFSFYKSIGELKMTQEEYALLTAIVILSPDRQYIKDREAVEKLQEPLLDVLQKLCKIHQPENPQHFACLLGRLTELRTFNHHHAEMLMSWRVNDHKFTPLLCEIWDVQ
# Sequence (P19793 1-462 partner): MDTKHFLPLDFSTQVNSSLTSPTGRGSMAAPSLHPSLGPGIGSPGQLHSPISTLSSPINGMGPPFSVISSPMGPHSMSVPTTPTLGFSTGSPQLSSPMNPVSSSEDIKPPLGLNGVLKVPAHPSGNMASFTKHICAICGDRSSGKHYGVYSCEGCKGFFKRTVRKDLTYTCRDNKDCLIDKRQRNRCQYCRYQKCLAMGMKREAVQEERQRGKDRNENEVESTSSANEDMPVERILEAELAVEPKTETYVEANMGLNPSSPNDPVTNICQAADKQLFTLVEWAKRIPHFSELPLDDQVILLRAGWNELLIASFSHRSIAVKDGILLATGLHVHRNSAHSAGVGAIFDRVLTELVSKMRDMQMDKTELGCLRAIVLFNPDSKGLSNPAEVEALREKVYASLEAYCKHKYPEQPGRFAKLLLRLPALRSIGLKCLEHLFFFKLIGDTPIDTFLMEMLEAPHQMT
# assayOverview: In Vitro FXR Assay (TK): TK-ECRE-luc reporter in transfected CV-1 cells
# particulars: CV-1 cells transfected with hFXR, hRXR, 18 h incubation, luminescence
assayEndpoint: EC50

> print(dat)
                                   molecule  experimentalresult
1  COC(=O)/C=C/c1cccc(N(Cc2ccc(-c3ccc(O)cc3)cc2)C(=O)C2CCCCC2)c1             > 10 µM
2  COC(=O)/C=C/c1cccc(N(Cc2ccc(-c3ccc(N(C)C)cc3)cc2)C(=O)C2CC[S+]([O-])CC2)c1 (stereo not shown)          1 to 10 µM
3  COC(=O)/C=C/c1cccc(N(Cc2ccc(-c3ccc(C(C)C)cc3)cc2)C(=O)C2CCCCC2)c1          1 to 10 µM
4  COC(=O)/C=C/c1cccc(N(Cc2ccc(-c3ccc(N(C)C)cc3)cc2)C(=O)c2ccc(F)cc2)c1          1 to 10 µM
5  CN(C)c1ccc(-c2ccc(CN(C(=O)C3CCCCC3)c3cccc(/C=C/C(=O)OCc4ccccc4)c3)cc2)cc1             > 10 µM
6  COC(=O)/C=C/c1cccc(N(Cc2ccc(-c3ccc(OC)c(Cl)c3)cc2)C(=O)C2CCCCC2)c1              ≤ 1 µM

Problem: Query: EC50; subject: COC(=O)/C=C/c1cccc(N(Cc2ccc(-c3ccc(OC)c(C)c3)cc2)C(=O)C2CCN(C(=O)OC(C)(C)C)CC2)c1
Result: 1 to 10 µM

FYI, the data here is from patent US10626081B2.
